Task for the reader: assign each of the following compounds its reported inhibition at 1 µM.
Study target: UniProtKB O43613
Sequence (O43613 1-425): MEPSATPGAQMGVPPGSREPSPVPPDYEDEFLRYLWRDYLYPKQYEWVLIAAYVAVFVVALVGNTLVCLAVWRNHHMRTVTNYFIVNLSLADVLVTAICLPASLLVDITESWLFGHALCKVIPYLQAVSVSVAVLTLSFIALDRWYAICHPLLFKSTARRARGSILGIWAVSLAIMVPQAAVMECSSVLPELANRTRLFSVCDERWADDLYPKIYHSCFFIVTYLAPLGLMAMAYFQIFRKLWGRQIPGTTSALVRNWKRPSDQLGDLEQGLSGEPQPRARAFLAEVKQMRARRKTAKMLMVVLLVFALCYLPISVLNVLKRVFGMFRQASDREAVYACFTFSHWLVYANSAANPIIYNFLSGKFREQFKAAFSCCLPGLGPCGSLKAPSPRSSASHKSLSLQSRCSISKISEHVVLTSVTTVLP
Test name: Intracellular calcium measurement (FLIPR), antagonism of orexin-A response in CHO cells expressing OX1R
Condition parameters: CHO, read-out: % Inhibition of OX1R @1 uM compound
One number for each entry, in %.

- Compound: "CCc1cnc(NC[C@@H]2[C@H](C)CCCN2C(=O)c2c(-c3ccccc3)nc3ccccn23)nc1 [Example 9]"
  Scale unit: "%"
  Val: 76.8
- Compound: "O=C(c1c(-c2ccccc2)nc2ccccn12)N1CCC[C@H]1COc1ccc(C(F)(F)F)cn1 [Example 18]"
  Scale unit: "%"
  Val: 70
- Compound: "C[C@@H]1CCCN(C(=O)c2c(-c3ccccc3)nc3ccccn23)[C@@H]1CNc1ccc(C(F)(F)F)cn1 [Example 8]"
  Scale unit: "%"
  Val: 86.1

The following compounds each have a reported value; give each one's inhibition at 1 µM.
1. O=C(c1c(-c2ccccc2)nc2ccccn12)N1CCC[C@H]1CNc1ccc(C(F)(F)F)cn1 [Example 11]
2. O=C(c1c(-c2ccccc2)nc2ccccn12)N1CCC[C@H]1Cn1ccc(-c2ccccc2)n1 [Example 12]
3. O=C(c1c(-c2ccccc2)nn2c1COCC2)N1CCC[C@H]1Cn1ccc(-c2ccccc2)n1 [Example 1]
4. O=C(c1c(-c2ccccc2)nn2ccccc12)N1CCC[C@H]1COc1ccc(C(F)(F)F)cn1 [Example 20]
5. O=C(c1c(-c2ccccc2)nn2ccccc12)N1CCC[C@H]1Cn1ccc(-c2ccccc2)n1 [Example 13]
6. CCc1cnc(OC[C@@H]2CCCN2C(=O)c2c(-c3ccccc3)nn3ccccc23)nc1 [Example 21]
7. O=C(c1c(-c2ccccc2)nn2c1COCC2)N1CCC[C@H]1COc1ccc(C(F)(F)F)cn1 [Example 17]
8. CCc1cnc(OC[C@@H]2CCCN2C(=O)c2c(-c3ccccc3)nn3c2COCC3)nc1 [Example 16]

67.1
88.9
69.7
84.9
96.6
38.8
45.1
0.59

The following compounds each have a reported value; give each one's inhibition at 1 µM.
1. C[C@@H]1CCCN(C(=O)c2c(-c3ccccc3)nn3ccccc23)[C@@H]1CNc1ccc(C(F)(F)F)cn1 [Example 6]
2. CCc1cnc(NC[C@@H]2CCCN2C(=O)c2c(-c3ccccc3)nc3ccccn23)nc1 [Example 14]
3. CCc1cnc(NC[C@@H]2[C@H](C)CCCN2C(=O)c2c(-c3ccccc3)nn3c2COCC3)nc1 [Example 5]
4. O=C(c1c(-c2ccccc2)nn2ccccc12)N1CCC[C@H]1CNc1ccc(C(F)(F)F)cn1 [Example 10]
5. CCc1cnc(NC[C@@H]2[C@H](C)CCCN2C(=O)c2c(-c3ccccc3)nn3ccccc23)nc1 [Example 4]

87.6
14.8
71
86.9
85.7

Reference source for all entries: patent US12275744B2
